Tested on: TE-6
Assay: In vitro human tumor cell line cytotoxicity assay
Assay type: cell-based
Details: read-out: RelIC50
readout label: IC50 (nM)
Field: numeric (nM). Do not append units.

(Q) Name the reported IC50 value associated with the compound C[C@H](OP(=O)(N1CC1)N1CC1)c1ccc([N+](=O)[O-])c(Oc2cccc(C(=O)N(C)C)c2)c1 (single isomer, unassigned) [TH3424]
(A) 21

* * *

Test system: OE 33
Assay: In vitro human tumor cell line cytotoxicity assay
Type: cell-based
Settings: OE33, read-out: RelIC50
readout label: pIC50
Keep in mind that pIC50 stands for -log10 of concentration in molar terms.

(Q) Name the reported pIC50 value associated with the molecule C[C@H](OP(=O)(N1CC1)N1CC1)c1ccc([N+](=O)[O-])c(Oc2cccc(C(=O)N(C)C)c2)c1 (single isomer, unassigned)
(A) 7.08
